assay: nonspecific potentiation of DAMGO calcium response – cell-based, HEK293 mu-opioid receptor line, counter-screen for TRPC4 allosteric potentiator project, confirmation (AID 449724); conditions: HEK293 mu-opioid receptor cells, Fluo-4 calcium flux, at 10 µM, compound added before EC20 DAMGO stimulus;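 also: HEK293 cells carrying mu-opioid receptor only with no TRPC4 channel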
Activity calls are given as the source filed them.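 The calls were made as follows: active = calcium signal rise more than 3 SD above the low-dose agonist control mean, in both duplicate plates and the primary screen; inactive = the rest.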
Respond only with the outcome that fits, drawn from T for active, F for inactive

Lookup: Write down the call the test reported for this compound. Item: COc1ccccc1OCC(=O)Nc1ccc(Cl)cc1
Found: F

Lookup: State the result this test recorded for Cc1sc2nc(SCC(N)=O)n(C)c(=O)c2c1C .
Found: F

Lookup: I would be grateful if you could indicate the recorded call for CC(OCC(O)CN(C)CCOc1ccccc1)c1ccc(Cl)cc1 (centres undefined) .
Found: F

Lookup: Outcome logged for O=C1/C(=C\c2cc([N+](=O)[O-])ccc2O)SC(=S)N1Cc1ccc(Cl)cc1 in this assay:
Found: T

Lookup: Look up the recorded call for CCc1cccc(OCC(=O)Nc2ccc(C(=O)O)cc2NC(=O)COc2cccc(CC)c2)c1 in this test.
Found: F

Lookup: Check the results log: what was the call for Cc1[nH]n2c(=O)c3c(nc2c1-c1ccccc1)CCC3 ?
Found: F

Lookup: For this compound, state the assay outcome: O=C(C1CCN(S(=O)(=O)c2cccnc2)CC1)N1CCN(c2ccc(Cl)cc2)CC1
Found: F

Lookup: Which outcome was assigned to O=C(CSc1nnc(-c2ccc(Cl)cc2Cl)n1C1CCCCC1)N1CCCC1 in this test?
Found: F

Lookup: What is the recorded call for this compound in the test? CCOC(=O)C1CCN(c2nc3ccccc3nc2C(C#N)C(=O)OCCOC)CC1 (centres undefined)
Found: F
